Data credit: patent US20240285769A1

- experimental-protocol: Drug saturation solubility studies
- Type: physicochemical
- measurement-parameters: NMP:Gelucire 44/14 (9:1 w/w), 21 °C, organic solvent or mixture, thermodynamic from solid, solvent NMP:Gelucire 44/14 (9:1 w/w)
quantity-name: solubility (mg/mL)
Just the number in mg/mL, nothing appended.

Look up solubility: C[C@H]1CO[C@@H]2Cn3cc(C(=O)NCc4ccc(F)cc4F)c(=O)c(O)c3C(=O)N12
134
